# protocol: folding stability dG unfold from chymotrypsin proteolysis; higher = more stable
value-kind: folding stability dG unfold
Don't forget the unit after the value.

[
  {
    "residue-codes": "SAGGSAGGSAGGSGLYLRLFDPGTGNVVAEVRVEIAPDGSLIAEARVADVPPVEDPEKASAGGSAGGSAGGS [r4_178_TrMRF]",
    "folding stability dG unfold": "2.39 kcal/mol"
  },
  {
    "residue-codes": "SAGGSAGGSAGGKVTVTPDGRLVIEKPKVTVEPVEVEEVEVELELKLSPEELEELLKKLSAGGSAGGSAGGS [r10_1096_TrROS_Hall]",
    "folding stability dG unfold": "0.745 kcal/mol"
  },
  {
    "residue-codes": "SAGGSIKIDEIEPDPPGDRVKVKMDIPVPMYDPNGKPKEPMPIKITAEARVDPENGELAINMDIEMSAGGSA [r2_220_TrROS]",
    "folding stability dG unfold": "1.4 kcal/mol"
  }
]

Shift focus to the following entry.
*Q* Form field: reported folding stability dG unfold of SAGGSAGGAKPPKTVTVKVEVTNADGETQTRTVTLTNLPKDLKPGDTVTLPETGQTARIVEITPSAGGSAGG [r6_560_TrROS_Hall]
*A* 3.02 kcal/mol
